system: TK-10 renal; experiment: NCI-60 one-dose screen, 48 h (100 = growth as untreated, 0 = no growth, -100 = all killed); conditions: 10 µM
About 83,000 compounds went through this panel and 20% of them were active in at least one assay; those are over-represented in the sample as a whole.
Tag: Fulfilled if measured growth is not below 90%, Not fulfilled if it is.

>>> class_label("NC1=NC(c2ccccc2Cl)N=C(Nc2nn[nH]n2)N1 (stereo unspecified)")
"Fulfilled"
>>> class_label("C/C(=C\\CC/C=C(\\C)CC/C=C(\\C)CC[C@@H](O)C(C)(C)O)CC/C=C(\\C)CC[C@@H](O)C(C)(C)O")
"Not fulfilled"
>>> class_label("COc1ccccc1NCc1ccc(CO)n1-c1ccc(C)cc1")
"Fulfilled"
>>> class_label("COc1ccc(OC)c(-c2cc(-c3c[nH]c4ccccc34)nc(N)c2C#N)c1")
"Not fulfilled"
>>> class_label("O=C(Cn1cc(CSc2nnc3oc4ccccc4n23)nn1)Nc1ccc(Br)cc1")
"Not fulfilled"
>>> class_label("O=c1[nH]c2ccccc2cc1CSc1ccc(Nc2nccc(-c3ccc4ccccc4c3)n2)cc1")
"Not fulfilled"
>>> class_label("O=C(NCCCCC(c1ccc(F)cc1)c1ccc(F)cc1)NCCCc1cccnc1")
"Not fulfilled"
>>> class_label("Cc1ccc(NC(=O)c2ccc(-n3c(=O)[nH]c4ccccc4c3=O)cc2)cc1")
"Fulfilled"
>>> class_label("CCNCCCn1c2c(c3cc(OC)c(OC)cc3c1=O)C(=O)c1cc3c(nc1-2)OCO3")
"Fulfilled"
>>> class_label("CN1CCN(c2ccc(Nc3nc(N4CCN(S(=O)(=O)c5ccc(F)cc5)CC4)c4sccc4n3)cc2)CC1")
"Not fulfilled"
>>> class_label("Cc1cccc(NC(=O)CSc2nc3ccc(F)cc3c(=O)n2-c2ccc(Cl)cc2)c1C")
"Fulfilled"
>>> class_label("CCN1CCN(Cc2ccc(NC(=O)c3cccc(-n4cc(-c5ccc(NC(C)=O)nc5)nn4)c3)cc2C(F)(F)F)CC1")
"Fulfilled"
>>> class_label("COc1ccc(CN2[C@H](C(=O)NCCCCCCC(=O)NO)Cc3c([nH]c4ccccc34)[C@H]2C2CC2)cc1")
"Not fulfilled"
>>> class_label("O=c1[nH]c2ccccc2cc1CSc1ccc(Nc2nccc(-c3ccc(C(F)(F)F)cc3)n2)cc1")
"Not fulfilled"
>>> class_label("C=C(C)[C@@H]1CC[C@]2(COP(=O)(OCC)OCC)CC[C@]3(C)[C@H](CC[C@@H]4[C@@](C)(CCCN)[C@H](C(=C)C)CC[C@]43C)[C@@H]12")
"Not fulfilled"
>>> class_label("O=C(CSc1nnc(-c2c[nH]c3ccccc23)n1-c1ccccc1)Nc1ccc(C(=O)/C=C/c2ccc(Br)cc2)cc1")
"Fulfilled"
>>> class_label("Nc1nc(-c2ccccc2)cs1")
"Not fulfilled"
>>> class_label("O=C(Nc1nc2ccccc2s1)c1ccc(Br)cc1")
"Fulfilled"
>>> class_label("COc1ccc(C(=O)/C=C/c2ccc(Cl)c(C(F)(F)F)c2)cc1S(N)(=O)=O")
"Not fulfilled"
>>> class_label("Cc1ccc(-c2nc3ccc(C(=O)N=Nc4c(O)[nH]c5ccc(Cl)cc45)cc3[nH]2)cc1")
"Not fulfilled"
>>> class_label("O=[N+]([O-])c1ccc(-c2nc(-c3ccccc3)c(-c3ccccc3)n2-c2ccc(S(=O)(=O)Nc3ncccn3)cc2)cc1")
"Not fulfilled"
>>> class_label("Cc1ccc([N+](=O)[O-])c(C(=O)Nc2ccc(-c3ccc4c(c3)NC(=O)/C4=C\\c3ccc[nH]3)cc2)c1")
"Fulfilled"
>>> class_label("CC1=C(c2cc(-c3ccc(Cl)cc3)c(C#N)c(N)n2)C(c2ccccc2)NC(=S)N1 (stereo unspecified)")
"Fulfilled"
>>> class_label("CN1CCCN(Cc2ccc(C(=O)Nc3cccc(Nc4ccc5cc(O)ccc5n4)c3)cc2C(F)(F)F)CC1")
"Fulfilled"
>>> class_label("CC(=C(c1ccc(OCCCN(C)C)cc1)c1ccc(OCCCN(C)C)cc1)c1ccccc1")
"Not fulfilled"
